// provenance: PubChem BioAssay

Assay: inhibitors of E-selectin induction by TNFa, primary screen, imaging, HUVEC, immunofluorescence, MLSMR starter and 10KST1 sets (AID 487);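 for nuclei count: 100% = median nuclei count of all wells on the same plate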
Conditions: HUVEC TNFalpha-induced E-selectin immunofluorescence imaging, at 2 µM; measured here: cell number, toxicity
Would you mind telling me the reported nuclei count of each entry?
Give bare numbers, in %.

Example results:
CCOC(=O)C1=C(CS(=O)(=O)c2ccc(F)c(C)c2)NC(=O)NC1c1ccc(O)c(O)c1 (stereo unspecified)	116
CC(Sc1ccc2ccccc2n1)C(=O)O (stereo unspecified)	185
O=C(C1CCCCC1)N1CCCn2c1nc1ccccc12	93.7
CCOc1ccc(C(=O)OCc2nnc(-c3cccs3)o2)cc1OC	137

Provide the reported nuclei count of each entry below, same order.
1. Cc1nn(C(=O)c2ccoc2C)c(N)c1-c1ccccc1
2. COC(=O)C(NC(=O)c1ccc(F)cc1)(Nc1nc(C)cs1)C(F)(F)F (stereo unspecified)
3. Cc1ccc2nsnc2c1S(=O)(=O)N(Cc1cc2cccc(C)c2[nH]c1=O)CC1CCCO1 (stereo unspecified)
4. CCN(CC)c1nc(-c2cccc(OC)c2O)nc2ccccc12
5. CCOC(=O)CSc1nnc(CCc2nc3ccccc3[nH]2)n1C
6. COc1ccc(C(=O)CSc2nnc(C3CCCCC3)n2N)c(OC)c1
7. COc1cccc(OC)c1C(=O)Nc1nc2ccc(S(C)(=O)=O)cc2s1

116
151
92.6
171
93.2
89.1
109

* * *

Test: DUSP6 inhibitors restoring Erk phosphorylation by chemical complementation, primary imaging in DUSP6-transfected HeLa (AID 609)
Conditions: HeLa MKP-3 transfected, phospho-Erk imaging KS statistic; measured here: nuclear c-Myc green intensity z-score; at 10 µM; cells stimulated with TPA for 15 min
MEASURED_PROPERTY: z-score
One number for each entry.

Answered examples (4):
CC(=O)NCC(=O)OCN1C(=O)c2ccccc2C1=O	-1.64
C=CCOC(=O)C1=C(C)NC(SCC(=O)Nc2ccc(C)c(Cl)c2)=C(C#N)C1c1ccco1 (stereo not given)	-0.359
CC12CN3CC(=O)N4CC5(C)CN(CC(C)(C4)C5=O)C(=O)CN(C1)CC(C)(C3)C2=O	-0.638
CN(CCOC(=O)c1ccc2c(c1)OCCO2)Cc1ccccc1	-0.671

Would you mind telling me what z-score value was observed for "O=C(Nc1ccc(N2CCN(C(=O)c3ccccc3)CC2)c(Cl)c1)c1ccc(Br)o1" ?
0.543

* * *

Assay: inhibitors of E-selectin induction by TNFa, primary screen, imaging, HUVEC, immunofluorescence, MLSMR starter and 10KST1 sets (AID 487);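 for inhibition: signal is fraction of cell area covered by stained E-selectin grains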
Conditions: HUVEC TNFalpha-induced E-selectin immunofluorescence imaging, at 2 µM; stronger effect = higher value
Active and inactive are the calls of the source.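 How the source made its calls: active means visually confirmed hit in the image check and inhibition above 20%; inconclusive means visually confirmed hit but inhibition not above 20%; inactive means no visual hit in the image check.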
MEASURED_PROPERTY: inhibition

O=c1oc2c(CN3CCCCC3)c(O)ccc2c2c1CCCCC2	34% (inactive)

Hey, quick one: what's inhibition for each of these?
1. Clc1ccc(COc2ccccn2)c(Cl)c1
2. COc1cc(S(=O)(=O)N2CCOCC2)ccc1NC(=O)COC(=O)C12CC3CC(CC(C3)C1)C2
3. COc1ccc(C)cc1NC(=O)COCC(=O)O
4. CC1(C(=O)CSc2n[nH]c(-c3ccccc3Cl)n2)CCC(=O)O1 (stereo unspecified)

1: -15.4% (inactive); 2: 27.1% (inactive); 3: -22.9% (inactive); 4: -44.5% (inactive)

Return reported inhibition; argument: "Nc1ncnc2oc(-c3ccco3)c(-c3ccco3)c12"
-29.9% (inactive)
